# System: U2OS
# EXPERIMENT SUMMARY: Incucyte cell viability with U2OS; also: unitless GR value; below 1 slowed growth and below 0 cell loss
# Assay type: toxicity, cell-based
# TEST SETTINGS: human, 12 h, 10 µM, compound concentration 10 uM, replicate number 1, timepoint 12 hours
Growth Rate by entry:
Lab note: write the figure by itself, no unit.

COMPOUND	TARGET	Growth Rate
CN1CCC(c2c[nH]c3ccc(O)cc23)CC1	U2OS	0.97
CO/C1=C/C(C)=C\[C@@H](C)[C@@H](O)[C@@H](C)C/C(C)=C\C=C/[C@H](OC)C([C@@H](C)[C@@H](O)[C@H](C)[C@@]2(O)C[C@@H](O)[C@H](C)[C@@H](C(C)C)O2)OC1=O (some centres undefined)	U2OS	0.37
CCCCCC(O)/C=C/[C@H]1C(=O)CC(O)C1C/C=C\CCCC(=O)O (some centres undefined)	U2OS	0.59

Entry `CCOc1nc2cccc(C(=O)O)c2n1Cc1ccc(-c2ccccc2-c2nnn[nH]2)cc1` has what Growth Rate? 0.85
